System: MES-SA/Dx5 (Taxol Resistant) human uterine sarcoma
Test: Drug resistant cell line pair, cytotoxicity (Example 10B)
Format: cell-based
Conditions: Homo sapiens, MES-SA/Dx5, MES-SA/DX5 Resistant, CsA Pretreat; Studies II-III in separate lines
Experimental Readout: pIC50
Hey, just a heads up that pIC50 is the negative log base 10 of the concentration in molar.

Q) Request: pIC50, test system MES-SA/Dx5 (Taxol Resistant) human uterine sarcoma, entry CC(C)(C)c1[nH]cnc1/C=c1\[nH]c(=O)/c(=C/c2ccccc2)[nH]c1=O [KPU-2, tBu-dehydro-PLH]
A) 7.42

Q) Lab note: need pIC50 with MES-SA/Dx5 (Taxol Resistant) human uterine sarcoma for entry CC(C)(C)c1[nH]cnc1/C=C1\NC(=O)[C@H](Cc2ccccc2)NC1=O [t-butyl-phenylahistin] , please look it up.
A) 6.21
